As shown below, each of these sequences has a reported pIC50 value.
Molecular target: HLA-A*02:03
Assay: IEDB peptide-MHC binding, purified MHC/competitive/radioactivity; bounds were set here for any values at or beyond the usual limits of such assays
Details: source organism: Vaccinia virus WR
pIC50: −log10 of the molar value.
attribute measured: pIC50

INSERT INTO assay_data (seq_string, study_system, value_observed) VALUES
  ('KVIKLVKSL', 'HLA-A*02:03', 7.37),
  ('EISSNDNAKI', 'HLA-A*02:03', 6.71),
  ('HQRRLVKLL', 'HLA-A*02:03', 5.77),
  ('FVATFRDML', 'HLA-A*02:03', 6.69),
  ('DLTALLSCI', 'HLA-A*02:03', 6.00),
  ('VMHINSPFKV', 'HLA-A*02:03', 8.60),
  ('ETMYLTMKAI', 'HLA-A*02:03', 7.60),
  ('RIEDMFLTSV', 'HLA-A*02:03', 7.15),
  ('FLARKGIDT', 'HLA-A*02:03', 6.50),
  ('NLYISDYKML', 'HLA-A*02:03', 5.74),
  ('CIVAAVIIMA', 'HLA-A*02:03', 6.21),
  ('FTEGKINPLL', 'HLA-A*02:03', 6.23);

* * *

Target: HLA-A*02:02
Test: IEDB peptide-MHC binding, purified MHC/competitive/radioactivity; bounds were set here for any values at or beyond the usual limits of such assays
Conditions: source organism: Hepacivirus hominis
attribute measured: log10 IC50 (log10 of the value in nM)

INSERT INTO measurements (seq_string, study_system, attribute_measured, value_observed) VALUES
  ('VLQAGITRV', 'HLA-A*02:02', 'log10 IC50', 1.99),
  ('LLMCAVHPEL', 'HLA-A*02:02', 'log10 IC50', 1.40),
  ('ALMIAAQVVV', 'HLA-A*02:02', 'log10 IC50', 1.70),
  ('LLYFILFFV', 'HLA-A*02:02', 'log10 IC50', 2.36),
  ('FISGIQYLA', 'HLA-A*02:02', 'log10 IC50', 0.93),
  ('LLGCIITSL', 'HLA-A*02:02', 'log10 IC50', 1.90),
  ('MILMTHFFSI', 'HLA-A*02:02', 'log10 IC50', 2.62),
  ('SLMAFTASI', 'HLA-A*02:02', 'log10 IC50', 1.28),
  ('ALLRMCALV', 'HLA-A*02:02', 'log10 IC50', 1.92),
  ('RLIVYPDLGV', 'HLA-A*02:02', 'log10 IC50', 0.28),
  ('VMWKCLIRL', 'HLA-A*02:02', 'log10 IC50', 2.58),
  ('LLYFILFFVA', 'HLA-A*02:02', 'log10 IC50', 3.57),
  ('YTLLGCWSFV', 'HLA-A*02:02', 'log10 IC50', 2.74),
  ('SISGVLWTV', 'HLA-A*02:02', 'log10 IC50', 0.94),
  ('LLSTTEWQV', 'HLA-A*02:02', 'log10 IC50', 0.69),
  ('RLLLLGLLLL', 'HLA-A*02:02', 'log10 IC50', 3.08),
  ('TSISGVLWTV', 'HLA-A*02:02', 'log10 IC50', 0.91),
  ('SMGNTLTCYV', 'HLA-A*02:02', 'log10 IC50', 1.64),
  ('KLLPQLPGV', 'HLA-A*02:02', 'log10 IC50', 1.71),
  ('ALLSCISVPV', 'HLA-A*02:02', 'log10 IC50', 1.61),
  ('LLLSTTEWQV', 'HLA-A*02:02', 'log10 IC50', 1.26),
  ('MLLIAQAEA', 'HLA-A*02:02', 'log10 IC50', 2.15),
  ('RLHGLEAFSL', 'HLA-A*02:02', 'log10 IC50', 1.54),
  ('VLMVDSFDPV', 'HLA-A*02:02', 'log10 IC50', 1.11),
  ('VLWTVFHGA', 'HLA-A*02:02', 'log10 IC50', 2.88),
  ('FMLCLLLLSV', 'HLA-A*02:02', 'log10 IC50', 2.67),
  ('YSMAGNWAKV', 'HLA-A*02:02', 'log10 IC50', 1.88),
  ('FLLALLSCL', 'HLA-A*02:02', 'log10 IC50', 0.41),
  ('MVLMTHFFSV', 'HLA-A*02:02', 'log10 IC50', 2.91),
  ('TLLGCWSFV', 'HLA-A*02:02', 'log10 IC50', 1.94),
  ('VLMTHFFSVL', 'HLA-A*02:02', 'log10 IC50', 1.79),
  ('FLLALLSCLT', 'HLA-A*02:02', 'log10 IC50', 1.93),
  ('MLLAYLVRI', 'HLA-A*02:02', 'log10 IC50', 0.82),
  ('LLLLSVGVGI', 'HLA-A*02:02', 'log10 IC50', 3.41),
  ('MMMNWSPTT', 'HLA-A*02:02', 'log10 IC50', 2.49),
  ('GLLLLCVGV', 'HLA-A*02:02', 'log10 IC50', 2.68),
  ('MMMNWSPTTA', 'HLA-A*02:02', 'log10 IC50', 1.15),
  ('YVLLLFLLLA', 'HLA-A*02:02', 'log10 IC50', 3.02),
  ('YLNTPGLPV', 'HLA-A*02:02', 'log10 IC50', 0.97),
  ('QMWKCLIRL', 'HLA-A*02:02', 'log10 IC50', 2.24),
  ('KLFPRLPGI', 'HLA-A*02:02', 'log10 IC50', 0.92),
  ('HLFTSMFSL', 'HLA-A*02:02', 'log10 IC50', 0.72),
  ('ALDCQIYGA', 'HLA-A*02:02', 'log10 IC50', 3.20),
  ('VLMTHFFSV', 'HLA-A*02:02', 'log10 IC50', 0.69),
  ('FLLALLSCI', 'HLA-A*02:02', 'log10 IC50', 0.94),
  ('ILLSRCLWWT', 'HLA-A*02:02', 'log10 IC50', 3.68),
  ('LLSVGVGIYL', 'HLA-A*02:02', 'log10 IC50', 1.08),
  ('RLLDLSSWFT', 'HLA-A*02:02', 'log10 IC50', 2.48),
  ('CLWWTCYMLV', 'HLA-A*02:02', 'log10 IC50', 3.27),
  ('VLAGGVLAAV', 'HLA-A*02:02', 'log10 IC50', 0.63),
  ('FMRDEVSFSV', 'HLA-A*02:02', 'log10 IC50', 0.34);
